// read-out Ki, gathered for Human PKK (Homo sapiens) from published studies
Readout Kind: Ki (nM)

As a guide, the following entries are already answered.
In [3]: df
Out[3]:
                                   compound  recorded_result
0  Cc1nc(N2CC3CC3C2)ccc1Cn1cc(C(=O)N[C@@H]2CCc3c2ccnc3N)c(C(F)(F)F)n1 (stereo partly shown)              0.4
1  Cc1nc(N2CC3CC3C2)ccc1Cn1nnc(C(=O)N[C@@H]2CCc3c(C)n[nH]c32)n1 (stereo partly shown)                5
2  Cc1nc(N2CC3(CC3)C2)ccc1Cn1cc(C(=O)NCc2cc(Cl)ccc2-n2cnnn2)cn1              0.3
3  Cc1nc(N2C[C@@H]3[C@H](C)[C@@H]3C2)ccc1Cn1cc(C(=O)N[C@@H]2CCc3c2n[nH]c3C)cn1              0.4
4  Cc1nc(N2CC3CC3C2)ccc1Cn1cc(C(=O)NCc2cc(Cl)ccc2-n2cnnn2)c(Br)n1 (stereo not shown)              0.4

(A) Cc1nc(N2CC3CC3C2)ccc1Cc1csc(C(=O)N[C@@H]2CCc3c(C)n[nH]c32)c1 (stereo partly shown)
(B) Cc1nc(N2CC3CC3C2)ccc1Cn1cc(C(=O)N[C@@H]2CCc3c2ccnc3N)c(C)n1 (stereo partly shown)
# return whichever of A and B has the smaller Ki The response must carry the label of the picked entry.
B
(B: 0.3 nM, A: 0.5 nM)
